Source of measurements: the supplement of paper PMC11196671

ASSAY NOTES: terephthalic acid (TPA) released, HPLC; higher = more TPA released; extreme values may be limits of the assay
MEASUREMENT CONTEXT: PET substrate: cryPow; 70 °C; pH 9.5; 24 h
Listed below: terephthalic acid values for each entry.

BIOSEQUENCE	UNIT OF MEASUREMENT	terephthalic acid
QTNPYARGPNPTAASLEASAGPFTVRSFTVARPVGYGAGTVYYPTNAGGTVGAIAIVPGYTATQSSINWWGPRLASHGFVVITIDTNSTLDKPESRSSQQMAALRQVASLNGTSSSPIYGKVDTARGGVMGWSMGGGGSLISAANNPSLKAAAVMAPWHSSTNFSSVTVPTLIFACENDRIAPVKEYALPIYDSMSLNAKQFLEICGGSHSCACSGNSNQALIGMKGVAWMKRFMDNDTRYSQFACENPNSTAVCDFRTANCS [HotPETase]	mM	0.489
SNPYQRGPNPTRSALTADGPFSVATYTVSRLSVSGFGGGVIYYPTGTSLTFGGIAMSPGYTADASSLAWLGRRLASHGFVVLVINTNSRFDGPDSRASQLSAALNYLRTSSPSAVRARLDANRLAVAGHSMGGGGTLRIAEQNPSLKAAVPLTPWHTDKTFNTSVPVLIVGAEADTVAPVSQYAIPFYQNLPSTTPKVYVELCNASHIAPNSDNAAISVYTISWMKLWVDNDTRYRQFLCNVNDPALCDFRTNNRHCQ [LCC-A2]	mM	0.987
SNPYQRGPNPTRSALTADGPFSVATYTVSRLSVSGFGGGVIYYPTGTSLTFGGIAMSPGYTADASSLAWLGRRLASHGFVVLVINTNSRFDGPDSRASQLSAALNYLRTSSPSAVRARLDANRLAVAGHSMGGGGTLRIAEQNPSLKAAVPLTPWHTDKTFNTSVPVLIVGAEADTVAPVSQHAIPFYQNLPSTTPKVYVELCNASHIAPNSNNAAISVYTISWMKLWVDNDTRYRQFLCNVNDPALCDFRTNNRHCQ [LCC-ICCG]	mM	0.682
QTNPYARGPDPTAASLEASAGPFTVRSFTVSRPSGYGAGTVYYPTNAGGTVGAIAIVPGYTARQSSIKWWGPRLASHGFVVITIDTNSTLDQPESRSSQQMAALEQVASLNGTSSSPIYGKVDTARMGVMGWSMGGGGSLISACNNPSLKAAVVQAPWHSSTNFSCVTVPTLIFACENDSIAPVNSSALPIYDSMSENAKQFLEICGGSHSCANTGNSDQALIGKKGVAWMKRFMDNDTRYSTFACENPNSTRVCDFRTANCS [Z1-PETase]	mM	0.367
